Sourced from patent US9244346B2

Entries and their λmax values follow.
test: wavelength (λmax) at absorption spectrum peak and gram absorption coefficient at λmax; format: physicochemical; details: wavelength at absorption spectrum peak

# structure smiles string, λmax
measured = [
    ("COc1ccc(/C=C(\\C)C(=O)N2CCCCC2)cc1[N+](=O)[O-]", "323 nm"),
    ("COc1ccc(/C=C/C(=O)N2CCCCC2)c([N+](=O)[O-])c1", "313 nm"),
    ("COc1ccc(/C=C(\\C)C(=O)n2ccnc2)cc1[N+](=O)[O-]", "351 nm"),
    ("COc1ccc(/C=C/C(=O)n2ccnc2)cc1", "293 nm"),
]

====

experiment: wavelength (λmax) at absorption spectrum peak and gram absorption coefficient at λmax; assay type: physicochemical; settings: wavelength at absorption spectrum peak
Classify by measured λmax: yes if it is equal to or exceeds 300 nm, no if it is smaller.

# molecule, label
records = [
    ("COc1ccc(/C=C(\\C)C(=O)n2ccnc2)c([N+](=O)[O-])c1", "yes"),
    ("COc1ccc(C=CC(=O)n2ccnc2)c(O)c1 [compound 9, reference compound]", "no"),
    ("COc1ccc(/C=C/C(=O)n2ccnc2)c([N+](=O)[O-])c1", "yes"),
    ("CCN(CC)C(=O)/C(C)=C/c1ccc(OC)cc1[N+](=O)[O-]", "yes"),
    ("CCN(CC)C(=O)/C(C)=C/c1ccc(OC)c([N+](=O)[O-])c1", "yes"),
    ("COc1ccc(/C=C/C(=O)N2CCOCC2)cc1", "yes"),
    ("COc1ccc(/C=C/C(=O)Nc2ccccc2)cc1", "yes"),
    ("COc1ccc(C=CC(=O)N2CCCCC2)cc1", "no"),
    ("COc1ccc(/C=C/C(=O)n2ccnc2)cc1[N+](=O)[O-]", "yes"),
    ("CCO[Si](C)(CCCN)OCC [Comparative Compound 6, reference compound]", "no"),
    ("COc1ccc(/C=C/C(=O)N2CCCCC2)cc1[N+](=O)[O-]", "yes"),
    ("CCN(CC)C(=O)/C=C/c1ccc(OC)cc1[N+](=O)[O-]", "yes"),
    ("COc1ccccc1/C=C/C(=O)N1CCCCC1 [Comparative Compound 2, reference compound]", "no"),
    ("COc1ccc(/C=C(\\C)C(=O)N2CCCCC2)c([N+](=O)[O-])c1", "yes"),
    ("CCN(CC)C(=O)C(C)=Cc1ccc(OC)cc1", "yes"),
    ("CCN(CC)C(=O)/C=C/c1ccc(OC)c([N+](=O)[O-])c1", "yes"),
]
